Target: human recombinant HDAC6 (Homo sapiens (Human))
Experiment: HDAC6 enzyme activity inhibition assay (HDAC Fluorimetric Drug Discovery Kit)
Format: biochemical
Conditions: human recombinant HDAC6, same protocol as HDAC1 test
Protocol: In order to examine the HDAC6 selectivity of the compounds of formula I of the present invention by HDAC1 and HDAC6 enzymatic activity inhibition assays, an experiment was performed using a conventional substance as a control. HDAC enzyme activity was measured using a HDAC Fluorimetric Drug Discovery Kit (BML-AK511, 516, Enzo Life Science). […] Based on the resulting values, each IC50 value was calculated using GraphPad Prism4.0 program.
result.type: pIC50
Value format note: pIC50 is -log10 of concentration (mol/L); just state the number.

CC(=O)N1CCN(S(=O)(=O)N(Cc2ccc(-c3nnc(C(F)F)o3)cc2F)c2cccnc2)CC1 [Compound 11318] | 7.37
CCN1[C@H](C)CN(S(=O)(=O)N(Cc2ccc(-c3nnc(C(F)F)o3)cc2)c2ccccc2)C[C@@H]1C [Compound 11640] | 6.98
CC(=O)N1CCN(S(=O)(=O)N(Cc2ccc(-c3nnc(C(F)F)o3)cc2F)c2cccc(F)c2)CC1 [Compound 11315] | 7.52

Query block: What measured pIC50 goes with Cl.O=S(=O)(N1CCNCC1)N(Cc1ccc(-c2nnc(C(F)(F)F)o2)cc1F)c1ccccc1 [Compound 11293, Hydrochloride] ?
Result block: 7.18

Query block: What measured pIC50 goes with O=S(=O)(N1CCN(C2COC2)CC1)N(Cc1ccc(-c2nnc(C(F)(F)F)o2)cc1F)c1ccccc1 [Compound 11527] ?
Result block: 7.12

Query block: What measured pIC50 goes with O=S(=O)(N1CCC2(CC1)CN(C1COC1)C2)N(Cc1ccc(-c2nnc(C(F)F)o2)cc1)c1ccccc1 [Compound 11788] ?
Result block: 6.75

Query block: What measured pIC50 goes with Cc1cccc(N(Cc2ccc(-c3nnc(C(F)F)o3)cn2)S(=O)(=O)N2CCN(C3COC3)[C@@H](C)C2)c1 [Compound 11828] ?
Result block: 7.38

* * *

biological target: human recombinant HDAC6 (Homo sapiens (Human), UniProt Q9UBN7); test: HDAC6 enzyme activity inhibition assay (HDAC Fluorimetric Drug Discovery Kit); format: biochemical; settings: HDAC6 versus HDAC1
Sequence (Q9UBN7 whole entry): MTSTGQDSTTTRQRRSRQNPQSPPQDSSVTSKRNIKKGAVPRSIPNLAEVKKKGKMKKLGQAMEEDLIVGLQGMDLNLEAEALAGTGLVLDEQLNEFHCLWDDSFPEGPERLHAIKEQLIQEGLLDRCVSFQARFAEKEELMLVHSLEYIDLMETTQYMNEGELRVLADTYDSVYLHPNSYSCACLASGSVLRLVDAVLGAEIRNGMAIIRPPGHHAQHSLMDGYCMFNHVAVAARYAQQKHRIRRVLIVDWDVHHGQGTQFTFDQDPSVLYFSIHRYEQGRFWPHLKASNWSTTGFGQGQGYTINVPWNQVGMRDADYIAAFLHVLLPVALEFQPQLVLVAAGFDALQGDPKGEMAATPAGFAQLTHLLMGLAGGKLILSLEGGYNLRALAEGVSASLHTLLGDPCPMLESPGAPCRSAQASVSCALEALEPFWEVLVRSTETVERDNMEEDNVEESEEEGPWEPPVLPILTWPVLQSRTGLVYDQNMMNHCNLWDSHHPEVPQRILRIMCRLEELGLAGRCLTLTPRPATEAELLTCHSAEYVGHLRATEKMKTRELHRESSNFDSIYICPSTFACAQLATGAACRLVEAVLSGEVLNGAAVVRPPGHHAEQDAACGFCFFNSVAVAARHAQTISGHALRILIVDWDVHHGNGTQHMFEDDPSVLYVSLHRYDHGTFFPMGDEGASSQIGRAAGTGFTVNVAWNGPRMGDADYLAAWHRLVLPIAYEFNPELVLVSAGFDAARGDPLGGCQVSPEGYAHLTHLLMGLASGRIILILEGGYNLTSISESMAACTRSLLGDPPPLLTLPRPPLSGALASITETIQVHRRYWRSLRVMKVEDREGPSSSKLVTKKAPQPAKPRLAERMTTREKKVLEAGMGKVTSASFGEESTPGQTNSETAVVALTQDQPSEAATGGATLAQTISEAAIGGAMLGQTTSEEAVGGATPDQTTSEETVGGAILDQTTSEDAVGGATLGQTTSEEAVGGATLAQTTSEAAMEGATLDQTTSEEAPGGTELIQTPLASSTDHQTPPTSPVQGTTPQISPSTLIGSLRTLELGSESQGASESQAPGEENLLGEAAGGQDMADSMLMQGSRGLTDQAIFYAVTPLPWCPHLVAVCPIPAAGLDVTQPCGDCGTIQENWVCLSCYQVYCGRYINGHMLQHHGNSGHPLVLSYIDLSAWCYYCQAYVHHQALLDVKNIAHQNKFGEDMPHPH
result.type: HDAC6 selectivity (fold)
Report the figure in fold without appending any unit label.

CC(=O)N1CCN(CCN(C)S(=O)(=O)N(Cc2ccc(-c3nnc(C(F)F)o3)cc2)c2ccccc2)CC1 | 142

Query block: What measured HDAC6 selectivity (fold) goes with Cc1cccc(N(Cc2ccc(-c3nnc(C(F)F)o3)cn2)S(=O)(=O)N2CCN(C3COC3)[C@@H](C)C2)c1 ?
Result block: 2380

Query block: What measured HDAC6 selectivity (fold) goes with CCN1CCN(S(=O)(=O)N(Cc2ccc(-c3nnc(C(F)(F)F)o3)cc2F)c2ccccc2)CC1 ?
Result block: 1169

Query block: What measured HDAC6 selectivity (fold) goes with CS(=O)(=O)N1CCN(S(=O)(=O)N(Cc2ccc(-c3nnc(C(F)F)o3)cc2F)c2cccc(F)c2)CC1 ?
Result block: 3061

Query block: What measured HDAC6 selectivity (fold) goes with CC(=O)N1[C@H](C)CN(S(=O)(=O)N(Cc2ccc(-c3nnc(C(F)F)o3)cc2)c2cccnc2)C[C@@H]1C ?
Result block: 1206

Query block: What measured HDAC6 selectivity (fold) goes with C[C@H]1CN(S(=O)(=O)N(Cc2ccc(-c3nnc(C(F)F)o3)cn2)c2cccc(Cl)c2)CCN1C ?
Result block: 3448

Query block: What measured HDAC6 selectivity (fold) goes with O=S(=O)(N1CCN(C2COC2)CC1)N(Cc1ccc(-c2nnc(C(F)F)o2)cc1)c1ccc(F)c(Cl)c1 ?
Result block: 1214

* * *

The following molecules are listed with their measured HDAC6 selectivity (fold) values.
biological target: human recombinant HDAC6 (Homo sapiens (Human)); assay: HDAC6 enzyme activity inhibition assay (HDAC Fluorimetric Drug Discovery Kit); assay type: biochemical; conditions: HDAC6 versus HDAC1
Report the figure in fold without appending any unit label.

Worked examples, 3 molecules total:
CC(C)N1CCN(S(=O)(=O)N(Cc2ccc(-c3nnc(C(F)F)o3)cc2F)c2ccccc2)CC1 | 2168
Cl.O=S(=O)(N1CCNCC1)N(Cc1ccc(-c2nnc(C(F)F)o2)cc1F)c1cccc(F)c1 | 4246
O=S(=O)(N1CCOCC1)N(Cc1ccc(-c2nnc(C(F)F)o2)cc1)c1ccc(F)cc1 | 1911

Query block: What measured HDAC6 selectivity (fold) goes with CCN1[C@H](C)CN(S(=O)(=O)N(Cc2ccc(-c3nnc(C(F)F)o3)cc2)c2ccccc2)C[C@@H]1C ?
Result block: 946

Query block: What measured HDAC6 selectivity (fold) goes with CCC(=O)N1CCN(S(=O)(=O)N(Cc2ccc(-c3nnc(C(F)F)o3)cc2F)c2ccccc2)CC1 ?
Result block: 3187

Query block: What measured HDAC6 selectivity (fold) goes with CC(=O)N1CCN(S(=O)(=O)N(Cc2ccc(-c3nnc(C(F)(F)F)o3)cc2F)c2cccnc2)CC1 ?
Result block: 1507

Query block: What measured HDAC6 selectivity (fold) goes with CS(=O)(=O)N1CCN(S(=O)(=O)N(Cc2ccc(-c3nnc(C(F)(F)F)o3)cc2F)c2ccccc2)CC1 ?
Result block: 805

* * *

target: human recombinant HDAC6 (Homo sapiens (Human)); assay: HDAC6 enzyme activity inhibition assay (HDAC Fluorimetric Drug Discovery Kit); type: biochemical; details: human recombinant HDAC6, same protocol as HDAC1 test
The following compounds are listed with their measured IC50 values.
Report the figure in nM without appending any unit label.

Worked examples, 6 compounds total:
O=S(=O)(N1CCN(C2CCC2)CC1)N(Cc1ccc(-c2nnc(C(F)F)o2)cc1)c1ccc(F)c(Cl)c1 | 237
CCN1CCN(S(=O)(=O)N(Cc2ccc(-c3nnc(C(F)(F)F)o3)cc2F)c2ccccc2)CC1 | 86
O=S(=O)(N1CCN(C2COC2)CC1)N(Cc1ccc(-c2nnc(C(F)F)o2)cn1)c1ccc(F)c(Cl)c1 | 14
CC(=O)N1CCN(S(=O)(=O)N(Cc2ccc(-c3nnc(C(F)(F)F)o3)cc2F)c2ccccc2)CC1 | 71
O=S(=O)(N1CCN(C2COC2)CC1)N(Cc1ccc(-c2nnc(C(F)(F)F)o2)cn1)c1ccccc1 | 79
O=S(=O)(N1CCN(C2COC2)CC1)N(Cc1ccc(-c2nnc(C(F)F)o2)cc1)c1ccc(F)c(Cl)c1 | 43

Pending compound:
Query block: Param readout= IC50; system= human recombinant HDAC6 (Homo sapiens (Human)); entry= O=S(=O)(N1CCN(C2COC2)CC1)N(Cc1ccc(-c2nnc(C(F)F)o2)cn1)c1ccccc1 ; returns value.
Result block: 16

* * *

target: human recombinant HDAC6 (Homo sapiens (Human)); assay: HDAC6 enzyme activity inhibition assay (HDAC Fluorimetric Drug Discovery Kit); conditions: human recombinant HDAC6, same protocol as HDAC1 test
The following molecules are listed with their measured IC50 values.
Report the figure in nM without appending any unit label.

Worked examples, 6 molecules total:
C[C@@H]1CN(S(=O)(=O)N(Cc2ccc(-c3nnc(C(F)F)o3)cc2)c2cccnc2)C[C@H](C)N1C | 47
CN(CCN1CCN(C2COC2)CC1)S(=O)(=O)N(Cc1ccc(-c2nnc(C(F)F)o2)cc1)c1ccccc1 | 233
CS(=O)(=O)N1CCN(S(=O)(=O)N(Cc2ccc(-c3nnc(C(F)F)o3)cc2F)c2cccc(F)c2)CC1 | 33
O=S(=O)(N1CCN(C2COC2)CC1)N(Cc1ccc(-c2nnc(C(F)F)o2)cc1)c1ccccc1 | 48
CS(=O)(=O)N1CCN(S(=O)(=O)N(Cc2ccc(-c3nnc(C(F)(F)F)o3)cc2F)c2ccccc2)CC1 | 124
CC(C)C(=O)N1CCN(S(=O)(=O)N(Cc2ccc(-c3nnc(C(F)(F)F)o3)cc2F)c2ccccc2)CC1 | 157

Pending molecule:
Query block: What measured IC50 goes with CN1CCN(CCN(C)S(=O)(=O)N(Cc2ccc(-c3nnc(C(F)F)o3)cc2)c2ccccc2)CC1 ?
Result block: 93

* * *

The following compounds are listed with their measured HDAC6 selectivity (fold) values.
molecular target: human recombinant HDAC6 (Homo sapiens (Human), UniProt Q9UBN7); assay: HDAC6 enzyme activity inhibition assay (HDAC Fluorimetric Drug Discovery Kit); format: biochemical; conditions: HDAC6 versus HDAC1
Report the figure in fold without appending any unit label.

CC(C)N1CCN(S(=O)(=O)N(Cc2ccc(-c3nnc(C(F)(F)F)o3)cc2F)c2ccccc2)CC1 | 861
O=S(=O)(N1CCN(C2COC2)CC1)N(Cc1ccc(-c2nnc(C(F)F)o2)cc1)c1ccccc1 | 2083
Cc1cccc(N(Cc2ccc(-c3nnc(C(F)F)o3)cn2)S(=O)(=O)N2CCN(C)[C@H](C)C2)c1 | 2083
O=S1(=O)CCN(S(=O)(=O)N(Cc2ccc(-c3nnc(C(F)F)o3)cn2)c2ccc(F)c(Cl)c2)CC1 | 2141
C[C@@H]1CN(S(=O)(=O)N(Cc2ccc(-c3nnc(C(F)F)o3)cc2)c2ccccc2)C[C@H](C)N1C(=O)C(F)F | 770

Query block: What measured HDAC6 selectivity (fold) goes with CC(C)C(=O)N1CCN(S(=O)(=O)N(Cc2ccc(-c3nnc(C(F)F)o3)cc2F)c2ccccc2)CC1 ?
Result block: 1912

Query block: What measured HDAC6 selectivity (fold) goes with O=S(=O)(N1CCN(C2COC2)CC1)N(Cc1ccc(-c2nnc(C(F)F)o2)cc1F)c1ccccc1 ?
Result block: 3846

Query block: What measured HDAC6 selectivity (fold) goes with CN(CCN1CCN(C2COC2)CC1)S(=O)(=O)N(Cc1ccc(-c2nnc(C(F)F)o2)cc1)c1ccccc1 ?
Result block: 429

Query block: What measured HDAC6 selectivity (fold) goes with CN1CCN(S(=O)(=O)N(Cc2ccc(-c3nnc(C(F)F)o3)cn2)c2ccccc2)CC1 ?
Result block: 6863
